Test: Solubility determination in oil (Table 10)
Conditions: 40 °C, water, thermodynamic from solid, Equilibrium solubility: Water, Heating Temp. 40 °C, Obs. Temp. 40 °C
Readout name: solubility thermodynamic (µg/mL)

INSERT INTO results (chem_smiles, readout_name, reported_relation, readout_number) VALUES
  ('C=C1CC[C@@]2(O)C3Cc4ccc(OC(=O)OCCCCCCCCCCCCCCCCCC)c5c4[C@@]2(CCN3CC2CC2)[C@H]1O5', 'solubility thermodynamic', '<', 1),
  ('C=C1CC[C@@]2(O)C3Cc4ccc(OCOC(=O)CCCCCCCCCCCCC)c5c4[C@@]2(CCN3CC2CC2)[C@H]1O5', 'solubility thermodynamic', '<', 1),
  ('C=C1CC[C@@]2(O)C3Cc4ccc(OC(=O)OCCCCCCCCCCCCC)c5c4[C@@]2(CCN3CC2CC2)[C@H]1O5', 'solubility thermodynamic', '<', 1),
  ('CCCCCCCCCCCCCCCCCCCC(=O)Oc1ccc2c3c1O[C@H]1C(=O)CC[C@@]4(O)C(C2)N(CC2CC2)CC[C@]314', 'solubility thermodynamic', '<', 1),
  ('CCCCCCCCCCCCCCC(=O)Oc1ccc2c3c1O[C@H]1C(=O)CC[C@@]4(O)C(C2)N(CC2CC2)CC[C@]314', 'solubility thermodynamic', '=', 1.4),
  ('C=C1CC[C@@]2(O)C3Cc4ccc(OC(=O)OCCCCCCCCCCCC)c5c4[C@@]2(CCN3CC2CC2)[C@H]1O5', 'solubility thermodynamic', '=', 2),
  ('C=C1CC[C@@]2(O)C3Cc4ccc(OC(=O)OCCCCCCCC)c5c4[C@@]2(CCN3CC2CC2)[C@H]1O5', 'solubility thermodynamic', '=', 0.8),
  ('CCCCCCCCCCCCCCOC(=O)OCOc1ccc2c3c1O[C@H]1C(=O)CC[C@@]4(O)C(C2)N(CC2CC2)CC[C@]314', 'solubility thermodynamic', '<', 1),
  ('CCCCCCCCCCCCCC(=O)Oc1ccc2c3c1O[C@H]1C(=O)CC[C@@]4(O)C(C2)N(CC2CC2)CC[C@]314', 'solubility thermodynamic', '<', 1),
  ('CCCCCCCCCCCCOC(=O)Oc1ccc2c3c1O[C@H]1C(=O)CC[C@@]4(O)C(C2)N(CC2CC2)CC[C@]314', 'solubility thermodynamic', '=', 0.5),
  ('CC(C)(C)CC(=O)Oc1ccc2c3c1O[C@H]1C(=O)CC[C@@]4(O)C(C2)N(CC2CC2)CC[C@]314', 'solubility thermodynamic', '=', 245),
  ('C=C1CC[C@@]2(O)C3Cc4ccc(OCOC(=O)OCCCCCCCCCCCCCC)c5c4[C@@]2(CCN3CC2CC2)[C@H]1O5', 'solubility thermodynamic', '<', 1),
  ('C=C1CC[C@@]2(O)C3Cc4ccc(OC(=O)OCCCCCCCCCCCCCCC)c5c4[C@@]2(CCN3CC2CC2)[C@H]1O5', 'solubility thermodynamic', '=', 32.8);

----------
Assay: Polymorph screening of solid state drug substances (Table 23)
Format: physicochemical
Conditions: Acetone, stirred 50 °C 72 hours, dried solid
Readout name: Dry method and appearance

INSERT INTO measurements (chem_smiles, result) VALUES
  ('CCCCCCCCCCCCCCCCOC(=O)Oc1ccc2c3c1O[C@H]1C(=O)CC[C@@]4(O)C(C2)N(CC2CC2)CC[C@]314', 'Evaporation/white powder'),
  ('CCCCCCCCCCCCOC(=O)Oc1ccc2c3c1O[C@H]1C(=O)CC[C@@]4(O)C(C2)N(CC2CC2)CC[C@]314', 'Evaporation/white powder'),
  ('C=C1CC[C@@]2(O)C3Cc4ccc(OC(=O)CCCCCCCCCCCCCCCCCCC)c5c4[C@@]2(CCN3CC2CC2)[C@H]1O5', 'Evaporation/white powder');
